Protein target, amino acids: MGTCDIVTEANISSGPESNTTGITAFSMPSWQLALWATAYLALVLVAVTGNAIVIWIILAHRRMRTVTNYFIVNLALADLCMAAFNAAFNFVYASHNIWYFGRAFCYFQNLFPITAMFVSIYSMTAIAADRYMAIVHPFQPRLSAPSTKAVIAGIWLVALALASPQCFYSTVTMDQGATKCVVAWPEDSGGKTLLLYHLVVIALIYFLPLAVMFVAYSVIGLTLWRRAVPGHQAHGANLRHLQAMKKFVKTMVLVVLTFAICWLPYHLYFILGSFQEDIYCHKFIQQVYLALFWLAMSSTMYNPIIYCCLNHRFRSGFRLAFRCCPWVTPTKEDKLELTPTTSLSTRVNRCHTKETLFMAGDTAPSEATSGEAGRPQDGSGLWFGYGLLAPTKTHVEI
Counter-ions that a name gives are not always drawn.
Kindly supply the reported pIC50 values for the records listed here.
The meaning of pIC50 here: minus log10 of the concentration in molar units.

# pIC50 (compound: O=C(CN1CCC(Cc2ccccc2)CC1)NC(Cc1c[nH]c2ccccc12)C(=O)NCc1ccccc1Cl (centres unmarked) [Example 1, hydrochloride salt] ) is 6.48

# pIC50 (compound: O=C(CN1CC(=O)N(Cc2ccccc2)CC1=O)NC(Cc1c[nH]c2ccccc12)C(=O)NCCc1ccccc1 (centres unmarked) ) is 6.13

# pIC50 (compound: O=C(CN1CCN(Cc2ccccc2)CC1)NC(Cc1c[nH]c2ccccc12)C(=O)NCc1ccccc1Cl (centres unmarked) [Example 13, dihydrochloride salt] ) is 6.62

# pIC50 (compound: CN1CC(=O)N(CC(=O)NC(Cc2c[nH]c3ccccc23)C(=O)NCc2ccccc2Cl)CC1=O (centres unmarked) ) is 5.51

# pIC50 (compound: O=C(CN1CCN(c2ccccc2)CC1)NC(Cc1c[nH]c2ccccc12)C(=O)NCc1ccccc1Cl (centres unmarked) ) is 6.62
